Overview of recorded OD450 nm (P.E. binding ELISA) for various binders
Target: T1, human IL-2Rβ (human, UniProt P14784 27-240, limits assumed)
T1 construct: Recombinant human IL-2Rβ protein, coated on ELISA plates or immobilized on a CM5 chip; also called hu IL-2R; interleukin 2 receptor β-chain
T1 sequence: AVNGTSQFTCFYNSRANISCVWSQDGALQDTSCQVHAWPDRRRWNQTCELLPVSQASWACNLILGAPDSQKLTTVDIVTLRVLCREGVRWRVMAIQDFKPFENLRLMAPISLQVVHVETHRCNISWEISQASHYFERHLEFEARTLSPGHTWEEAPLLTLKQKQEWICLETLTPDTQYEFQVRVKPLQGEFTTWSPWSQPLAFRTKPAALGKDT
Assay: P.E. binding ELISA, human IL-2Rβ coated
MEASURED_METRIC: OD450 nm (P.E. binding ELISA) (OD450 nm)

* FJ1427_P035MP06F06 (VHH, Soluble VHH in periplasmic extract (P.E.); also called Clone nr) VHH: QVQLVESGGGLVQAGGSLRLSCAASGDVFVRYTMAWFRQAPGKEREFVASVTDSGRTTDYVDSVKGRFTVSRDNAKNTVYLQMNNLKPEDTAVYYCAANTDYFQIRSLEFNTWGQGTQVTVSS | 0.224
* FJ1427_P035MP06C08 (VHH, Soluble VHH in periplasmic extract (P.E.); also called Clone nr) VHH: QVQLVESGGGLVQAGGSLRLSCAASGDVFVRYTMAWFRQAPGKEREFVASVTDSGRTTEYVDSVKGRFTVSRDNAKNTAYLQMNNLKPEDTAIYYCAANTDYFQIRSLDLNTWGQGTQVTVSS | 0.297
* FJ1427_P035MP06C06 (VHH, Soluble VHH in periplasmic extract (P.E.); also called Clone nr; 523) VHH: QVQLQESGGGLVQAGGSLRLSCVVSGDVFVRYTMAWFRQAPGKEREFVAVVTDSGRTTEYVDSVKGRFTVSRDNAKNTVYLQMNNLKPEDTAVYYCAANTDYFQIRSVDNNAWGQGTQVTVSS | 0.255
* FJ1427_P035MP06A03 (VHH, Soluble VHH in periplasmic extract (P.E.); also called Clone nr) VHH: EVQLVESGGGLVQAGGSLRLSCAASGDVFVRYTMAWFRQAPGKEREFVASVTDSGRTTDYVDSVKGRFTVSRDNAKNTVYLQMNNLKPEDTAVYYCAANTDYFQIRSLEFNTWGQGTQVTVSS | 0.148
* FJ1427_P035MP06D03 (VHH, Soluble VHH in periplasmic extract (P.E.); also called Clone nr; 500) VHH: QVQLVESGGGLVQAGGSLRLSCAASGDVFVRYTMAWFRQAPGKEREFVASVTDSGRTTEYVDSVKGRFTVSRDNAKNTAYLQMNNLKPEDTAIYYCAANTDYFQIRSLDLNTWGQGTQVTVSS | 1.02
* FJ1427_P035MP06G08 (VHH, Soluble VHH in periplasmic extract (P.E.); also called Clone nr; 543) VHH: QVQLQESGGGLVQAGGSLRLSCAASGDVFVRYTMAWFRQAPGKEREFVASVTDSGRTTEYVDSVKGRFTVSRDNAKNTAYLQMNNLKPEDTAVYYCAANTDYFQIRSLNLNTWGQGTQVTVSS | 0.255
* FJ1427_P035MP06H08 (VHH, Soluble VHH in periplasmic extract (P.E.); also called Clone nr) VHH: QVQLVESGGGLVQAGGSLRLSCAASGDVFVRYTMAWFRQAPGKEREFVASVTDSGRTTEYVDSVKGRFTVSRDNAKNTAYLQMNNLKPEDTAIYYCAANTDYFQIRSLDLNTWGQGTQVTVSS | 0.313
* FJ1427_P035MP06D05 (VHH, Soluble VHH in periplasmic extract (P.E.); also called Clone nr) VHH: QVQLVESGGGLVQAGGSLRLSCAVSGDVFVRYTMAWFRQAPGKEREFVASVTDSGRTTEYVDSVKGRFTVSRDNAKNTVYLQMNSLKPEDTAVYYCAANTDYFQIRSLRANTWGQGTQVTVSS | 0.304
